biological target: Human CatB (Homo sapiens, UniProt P07858); assay: kinact/KI^app determination, recombinant human CatB; type: biochemical
Kindly state kinact for each of the entries shown.
Write the value in s⁻¹ as a bare number.

Prompt line: What value of measured kinact is listed for COC1=CC(=O)N(C(=O)/C=C/[C@H](CCc2ccccc2)NC(=O)[C@H](CC(C)C)NC(=O)[C@H](CC(C)C)NC(=O)[C@H](C(C)C)N(C)C)[C@H]1Cc1c[nH]c2ccccc12 [compound 23] ?
Response line: 0.00189

Prompt line: // next record COC1=CC(=O)N(C(=O)/C=C/[C@H](C)NC(=O)[C@H](CCc2ccccc2)NC(=O)[C@H](CC2CCCCC2)NC(=O)[C@H](C(C)C)N(C)C)[C@H]1Cc1c[nH]c2ccccc12 [compound 19]
Response line: 0.00335

Prompt line: // next record COC1=CC(=O)N(C(=O)/C=C/[C@H](C)NC(=O)[C@H](CC(C)C)NC(=O)[C@H](CC(C)C)NC(=O)C2CCN(C)CC2)[C@H]1Cc1c[nH]c2ccccc12 [compound 20]
Response line: 0.017

Prompt line: // next record CC[C@H](C)[C@@H](C(=O)O[C@@H](CC(C)C)C(=O)N[C@@H](CC(C)C)C(=O)N[C@@H](C)/C=C/C(=O)N1C(=O)C=C(OC)[C@@H]1C)N(C)C [compound 1, gallinamide A]
Response line: 0.000627

Prompt line: // next record COC1=CC(=O)N(C(=O)/C=C/[C@H](C)NC(=O)[C@H](CC(C)C)NC(=O)[C@H](CC2CCCCC2)NC(=O)C2CCN(C)CC2)[C@H]1Cc1c[nH]c2ccccc12 [compound 17]
Response line: 0.0209
